Quick list: growth per entry.
test system: MALME-3M melanoma; experiment: NCI-60 one-dose screen, 48 h (100 = growth as untreated, 0 = no growth, -100 = all killed); conditions: 10 µM unless noted
About 83,000 compounds went through this panel and 20% of them were active in at least one assay; those are over-represented in the sample as a whole.

compound: CCOC(=O)C(C)(CSSCC(C)(NC(=O)c1ccc2ccccc2c1)C(=O)OCC)NC(=O)c1ccc2ccccc2c1 (centres undefined)
growth [%]: 115
//
compound: Cc1cc(C)c(O)c(C(=O)CC(Br)C(=O)O)c1 (centres undefined)
growth [%]: 111
//
compound: COc1ccc(/C=C2\CS(=O)(=O)C/C(=C\c3ccc(OC)cc3)C2=O)cc1
growth [%]: -23
//
compound: CCn1c(SC)nnc1-c1cc2c([nH]c3ccccc32)c(-c2cccc(O)c2)n1
growth [%]: 33.1
//
compound: O=C(NNC(=O)c1ccc([N+](=O)[O-])cc1)c1ccc([N+](=O)[O-])cc1
growth [%]: 112
//
compound: Cc1ccc(Cn2cc(COc3ccc4c5ccnc(C)c5n(CCCc5ccccc5)c4c3)nn2)cc1
growth [%]: 87.9
//
compound: CN1CCN(Cn2nc(-c3cc(F)c(Cl)cc3Cl)n(/N=C/c3ccc(N(C)C)cc3)c2=S)CC1
growth [%]: 63.4
//
compound: O=C(O)c1ccc(-n2cc(/C=N/Nc3ccc(Cl)cc3)c(-c3ccc(F)c(F)c3)n2)cc1
growth [%]: 36
//
compound: CCCCCCCC(=O)SCC/C=C/[C@@H]1CC(=O)NCc2nc(cs2)C2=N[C@@](C)(CS2)C(=O)N[C@@H](C(C)C)C(=O)N1
growth [%]: 10.8
